Data origin, for the record: patent US12201610B2

Protocol: Phase 1 PK Part 1: relative bioavailability, dose proportionality, food effect of unmilled API tablet
Format: in vivo, human
Condition: human, plasma, po, 10 mg, Relative BA, completers; Treatment A (Reference): 2 × 5 mg oral capsule, fasting; read-out: Geometric Mean AUClast
Value kind: AUC(0-t) (ng·h/mL)
Numeric answer only, unit ng·h/mL assumed.

Inquiry: What value of AUC(0-t) has been reported for the following compound? Cc1cc(C)cc(C2CCCN2Cc2ccc(Oc3ccc(C(N)=O)cc3F)cc2)c1 (stereo not shown)
Reply text: 291

====

Protocol: Phase 1 PK Part 1: relative bioavailability, dose proportionality, food effect of unmilled API tablet
Assay type: in vivo, human
Condition: human, plasma, oral, 10 mg, Treatment D: 1 × 10 mg Formulation Concept 1 (unmilled API tablet), after high-fat breakfast; mean; read-out: AUC∞
Value kind: AUC(0-inf) (µg·h/mL)
Numeric answer only, unit µg·h/mL assumed.

Inquiry: What value of AUC(0-inf) has been reported for the following compound? Cc1cc(C)cc(C2CCCN2Cc2ccc(Oc3ccc(C(N)=O)cc3F)cc2)c1 (stereo not shown)
Reply text: 0.425

====

Protocol: Phase 1 PK Part 1: relative bioavailability, dose proportionality, food effect of unmilled API tablet
Assay type: in vivo, human
Condition: human, plasma, oral, 10 mg, Treatment B: 1 × 10 mg Formulation Concept 1 (unmilled API tablet), fasting; mean
Value kind: half-life (h)
Numeric answer only, unit h assumed.

Inquiry: What value of half-life has been reported for the following molecule? Cc1cc(C)cc(C2CCCN2Cc2ccc(Oc3ccc(C(N)=O)cc3F)cc2)c1 (stereo not shown) [aticaprant]
Reply text: 26.6

====

Protocol: Phase 1 PK Part 1: relative bioavailability, dose proportionality, food effect of unmilled API tablet
Type: in vivo, human
Condition: Relative BA, completers; Treatment B (Test): 1 × 10 mg Formulation Concept 1, fasting
Value kind: Geometric Mean Cmax (ng/mL)
Numeric answer only, unit ng/mL assumed.

Inquiry: What value of Geometric Mean Cmax has been reported for the following molecule? Cc1cc(C)cc(C2CCCN2Cc2ccc(Oc3ccc(C(N)=O)cc3F)cc2)c1 (stereo not shown)
Reply text: 32.8

====

Protocol: Phase 1 PK Part 1: relative bioavailability, dose proportionality, food effect of unmilled API tablet
Type: in vivo, human
Condition: human, plasma, oral, 10 mg, Dose proportionality, completers; Treatment B (Reference): 1 × 10 mg Formulation Concept 1, fasting; read-out: Geometric Mean AUClast
Value kind: AUC(0-t) (ng·h/mL)
Numeric answer only, unit ng·h/mL assumed.

Inquiry: What value of AUC(0-t) has been reported for the following molecule? Cc1cc(C)cc(C2CCCN2Cc2ccc(Oc3ccc(C(N)=O)cc3F)cc2)c1 (stereo not shown)
Reply text: 271

====

Protocol: Phase 1 PK Part 2: relative bioavailability, dose proportionality, food effect of milled API tablet
Type: in vivo, human
Condition: human, plasma, oral, 10 mg, Relative BA, completers; Treatment F (Test): 1 × 10 mg Formulation Concept 2 (milled API tablet), fasting; read-out: Geometric Mean AUClast
Excerpt: This is a Phase 1, open-label, single dose, multicenter, 4-part study in healthy adult participants. Potential participants will be screened from Day −28 to Day −2 to determine participants' eligibility for study participation. […] In Parts 1 and 2, plasma concentrations will be determined for aticaprant. […] The following plasma PK parameters of aticaprant will be determined. […]
Value kind: AUC(0-t) (ng·h/mL)
Numeric answer only, unit ng·h/mL assumed.

Inquiry: What value of AUC(0-t) has been reported for the following compound? Cc1cc(C)cc(C2CCCN2Cc2ccc(Oc3ccc(C(N)=O)cc3F)cc2)c1 (stereo not shown)
Reply text: 274
